test system: 945468-187-T-J2-PDC spheroids viability; assay: Anticancer human tumor 945468-187-T-J2-PDC patient-derived rectal carcinoma cell line growth inhibition [PI3K]; settings: second compound 0.1 µM; first compound 0.1 µM; active compounds read low; spheroids with HUVEC and MSC;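 also: spheroids exposed to compounds for seven days before reading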
Reported viability, T/C values follow for various compounds
// return numeric value only (unit: %, not printed)

Some entries whose results are on file:
CC1(C)CCC(CN2CCN(c3ccc(C(=O)NS(=O)(=O)c4ccc(NCC5CCOCC5)c([N+](=O)[O-])c4)c(Oc4cnc5[nH]ccc5c4)c3)CC2)=C(c2ccc(Cl)cc2)C1 + CC(Nc1ncnc2nc[nH]c12)c1cc2cccc(Cl)c2c(=O)n1-c1ccccc1 = 75.7
Cn1nccc1Nc1nccc(-c2ccn(C(CO)c3ccc(Cl)c(F)c3)c(=O)c2)n1 (stereo not drawn) + CC(Nc1ccc2c(c1)OCCn1cc(N3C(=O)OCC3C(F)F)nc1-2)C(N)=O = 90.6

Proceed to the following item.
Query :: Quick one: viability, T/C of CC1(C)CCC(Nc2ncc(C(F)(F)F)c(-c3c[nH]c4c(P(C)(C)=O)c(C#N)ccc34)n2)CN1 (stereo not drawn) + Cc1nc(NC(=O)N2CCCC2C(N)=O)sc1-c1ccnc(C(C)(C)C(F)(F)F)c1 ?
Result :: 85.4
